- assay remarks: binders from COS7 lysate, DM2A8 probe, primary screen, torsin A project, cell lysate, small-molecule microarray, fluorescence 635/667 (AID 1065)
- test conditions: higher = more signal, COS7 lysate expressing mutant human TOR1A
Could you please report measured composite z-score for the items listed next?
One number for each entry.

Use these answered entries as a reference point.
compound: CNS(=O)(=O)c1ccc(C)cc1
composite z-score: 0.182

compound: CC1(C)C2C=C(C(O)C3C=CC4C(=O)NC(=O)C4N3Nc3ccc(Cl)cc3Cl)C[C@@H]1C2 (stereo partly drawn)
composite z-score: 0.877

compound: CCOC(=O)C1=CC[C@@H](c2ccccc2)N(S(=O)(=O)c2ccc(C)cc2)[C@H]1c1ccccc1C
composite z-score: -0.0515

compound: C=CCNC(=O)[C@@H]1[C@H]2C(=O)O[C@H](c3ccccc3)[C@H](c3ccccc3)N2[C@H](c2ccccc2OCCO)[C@@]12C(=O)N(C(=O)OCCOC)c1ccccc12
composite z-score: 0.603

compound: CCCC#C[Si](O[C@H](CC)c1cn(Cc2cccc(Cl)c2)nn1)(C(C)C)C(C)C
composite z-score: -0.139

Look up composite z-score for the entries below, preserving their order.
1. COC(=O)[C@@]1(Cc2ccc(F)cc2)[C@H]2c3cc(C(=O)N4CCCC4)n(CCCNc4ncc(C(F)(F)F)cc4Cl)c3C[C@H]2CN1C(=O)c1ccccc1
2. CC(=O)NCCCC[C@@H]1NC(=O)[C@H]2C[C@@H](C(=O)NCCCCCCNC(=O)CS)[C@@H](c3ccc(O)cc3)N2C1=O
3. COCCOC(=O)N1C(=O)[C@@]2(c3cc(C#CC4(O)CCCCCC4)ccc31)[C@H](c1ccc(OCCO)cc1)N1[C@H](c3ccccc3)[C@H](c3ccccc3)OC(=O)[C@H]1[C@@H]2C(=O)N1CCN(c2ncccn2)CC1

Result:
-0.245
1.42
0.485

---

- assay remarks: small-molecule microarray binders of probe aWnt5a, primary screen, biochemical, biotinylated probe, 635/667 nm fluorescence (AID 1113);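 also: score merges 667 nm fluorescence intensity with signal-to-noise per printed feature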
- test conditions: higher = more signal
quantity name: composite z-score
Answers are plain numbers.

Use these answered entries as a reference point.
smiles text: O=C(NCCO)C1=C[C@H](Oc2ccccc2I)[C@@H](O)[C@H](N(Cc2ccco2)C(=O)Cc2ccccc2)C1
quantity name: composite z-score
recorded measurement: 0.0057
--
smiles text: COCCOC(=O)N1C(=O)[C@@]2(c3cc(C#CCNC(N)=O)ccc31)[C@H](C(=O)Nc1nc3ccccc3s1)[C@H]1C(=O)O[C@H](c3ccccc3)[C@H](c3ccccc3)N1[C@@H]2c1ccc(OCCO)cc1
quantity name: composite z-score
recorded measurement: 0.003
--
smiles text: C[N+](C)(C)CCCCNC(=O)[C@H]1C[C@H]2C(=O)N3CCC[C@H]3C(=O)N2[C@H]1c1cccc(OCCO)c1
quantity name: composite z-score
recorded measurement: -0.0721
--
smiles text: CCOC(=O)C[C@H]1[C@H](OC(=O)c2ccccc2-c2ccccc2)[C@@H](NC(=O)CC(C)C)c2cc(OCCCO)ccc2N1C(=O)Cc1ccc(OC)cc1
quantity name: composite z-score
recorded measurement: -0.0953
--
smiles text: Cc1ccc(S[C@]2(C(=O)NCCCN(C)C)CC(=O)N(Cc3ccccc3C(F)(F)F)[C@@H]2c2ccc(CO)cc2)cc1
quantity name: composite z-score
recorded measurement: -0.0944

Look up composite z-score for the entries below, preserving their order.
1. CC(C)[Si](C#Cc1ccc(Oc2ccccc2)cc1)(O[Si](C#Cc1ccc(Oc2ccccc2)cc1)(C(C)C)C(C)C)C(C)C
2. O=C1c2ccccc2[C@](Cc2ccccc2I)(C(=O)NCCN2CCOCC2)[C@H](c2ccc(CO)cc2)N1C1CCCCC1
3. C=CC[C@@]1(C(=O)NCCN2CCOCC2)N=C(c2ccc(OCCCO)cc2)O[C@@H]1c1ccccc1N=[N+]=[N-]

Result:
1: 0.0561; 2: 0.0286; 3: -0.1

Look up composite z-score for the entries below, preserving their order.
1. COCCOC(=O)N1C(=O)[C@@]2(c3cc(C#CCC(C(=O)OC)C(=O)OC)ccc31)[C@H](c1ccccc1OCCO)N1[C@H](c3ccccc3)[C@H](c3ccccc3)OC(=O)[C@H]1[C@@H]2C(=O)N1CCN(c2ncccn2)CC1
2. O=C1C[C@@](C(=O)NCCN2CCOCC2)(c2ccc([N+](=O)[O-])cc2)[C@@H](c2ccc(CO)cc2)N1CC12CC3CC(CC(C3)C1)C2
3. COc1ccccc1CN1C(=O)c2ccccc2[C@@]2(Cc3ccccc3N(CC(C)C)C2=O)[C@@H]1c1ccc(CO)cc1
4. CC(=O)NCCCC[C@@H]1NC(=O)[C@H]2C[C@@H](C(=O)NCCCCCCNC(=O)CS)[C@@H](c3ccc(O)cc3)N2C1=O
5. CCCC[C@@H]1C[C@H]1[C@@H](NC(=O)C(C)(C)C)c1ccc(C(F)(F)F)cc1

Result:
0.102
-0.0445
-0.091
-0.124
-0.203

Query: Look up composite z-score for this compound: `C=C(C(=O)CC[C@@H](OC(=O)c1cccnc1)c1ccccc1OCCO)C(C)C`
Result: -0.0643

---

- assay remarks: small-molecule microarray binders of probe aShh, primary screen, biochemical, biotinylated probe, 635/667 nm fluorescence (AID 1114);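 also: probe is biotin-labelled aShh protein from a stem cell growth factor screen; measures binding of labelled protein to compounds printed on the slide; score merges feature fluorescence at 667 nm with signal-to-noise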
- test conditions: higher = more signal
quantity name: composite z-score
Answers are plain numbers.

Use these answered entries as a reference point.
smiles text: O=C1N(Cc2ccccc2)c2ccccc2[C@@H]2OC(c3ccc(OCCCO)cc3)=N[C@]12CCS(=O)(=O)c1ccccc1
composite z-score: -0.0575
--
smiles text: COC(=O)[C@@]1(Cc2ccc(OC)cc2)[C@H]2c3cc(C(=O)N(C)C)n(CCc4ccccn4)c3C[C@H]2CN1C(=O)c1ccccc1
composite z-score: 1.31
--
smiles text: C[N+](C)(C)CCCCNC(=O)[C@H]1C[C@H]2C(=O)N3CCC[C@H]3C(=O)N2[C@H]1c1cccc(OCCO)c1
composite z-score: 0.0141

Query: Look up composite z-score for this compound: `CC(C)C(=C=CC[C@@H](O)c1ccc(OCCO)cc1)C[C@@H](O)COCc1ccccc1`
Result: -0.0553

---

Could you please report measured z-score for the items listed next?
- assay remarks: modulators of HCV replicon luciferase signal, primary screen, HCV replication inhibitor project, Huh7 cells, luciferase reporter (AID 1109);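 also: huh7 hepatoma cells harbouring a luciferase neomycin HCV replicon reporter; luciferase luminescence as measure of HCV replicon replication; test concentration not given here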
- test conditions: 48 h, higher = more signal

Look up z-score for the entries below, preserving their order.
1. C=C(C(=O)CC[C@@H](OC(=O)c1cccnc1)c1ccccc1OCCO)C(C)C
2. CNS(=O)(=O)c1ccc(C)cc1
3. C=CCNC(=O)[C@@H]1[C@H]2C(=O)O[C@H](c3ccccc3)[C@H](c3ccccc3)N2[C@H](c2ccccc2OCCO)[C@@]12C(=O)N(C(=O)OCCOC)c1ccccc12
4. O=C1C[C@@](C(=O)NCCN2CCOCC2)(c2ccc([N+](=O)[O-])cc2)[C@@H](c2ccc(CO)cc2)N1CC12CC3CC(CC(C3)C1)C2

Result:
-2.35
-0.376
-2.64
-3.14

Look up z-score for the entries below, preserving their order.
1. CCCC#C[Si](O[C@H](CC)c1cn(Cc2cccc(Cl)c2)nn1)(C(C)C)C(C)C
2. C=CCN1C(=O)[C@@]2(CC=C)N=C(c3ccc(OCCCO)cc3)O[C@H]2c2ccccc21

Result:
1: -0.113; 2: -2.48

Look up z-score for the entries below, preserving their order.
1. COC(=O)[C@@]1(Cc2ccc(F)cc2)[C@H]2c3cc(C(=O)N(C)C)n(Cc4ccccc4)c3C[C@H]2CN1C(=O)c1ccccc1
2. CC(C)C(CO)N1C(=O)[C@@H]2C3C(=O)OCCC/C=C\[C@H]3OC23C=CCN(CCN2CCOCC2)C(=O)[C@@H]13 (some centres undefined)
3. CN(C)C(=O)[C@]1(Cc2ccccc2N=[N+]=[N-])N=C(c2ccc(OCCCO)cc2)O[C@@H]1c1ccccc1N=[N+]=[N-]
4. CC(C)OC(=O)C=C1C[C@@H](c2ccccn2)O[C@@H](c2ccccn2)O1

Result:
0.185
0.0618
-2.69
-0.884

Look up z-score for the entries below, preserving their order.
1. CCOC(=O)C[C@H]1[C@H](OC(=O)c2ccc(C(=O)c3ccccc3)cc2)[C@@H](NC(=O)c2ccc3ccccc3n2)c2cc(OCCCO)ccc2N1C(=O)c1ccccc1
2. C=CCNC(=O)[C@@H]1[C@H]2C(=O)O[C@H](c3ccccc3)[C@H](c3ccccc3)N2[C@H](c2ccc(O)cc2)[C@@]12C(=O)Nc1ccc(C#CCNC(N)=O)cc12
3. CCCC[C@@H]1C[C@H]1[C@@H](NC(=O)c1ccco1)c1ccccc1C(F)(F)F
4. CCCC[C@H]1OB(O)C[C@H]2C1=C(COC)C[C@H]1C(=O)N(C)C(=O)[C@H]12

Result:
1. -1.63
2. -0.365
3. -1.42
4. -0.918
